meta.source: PubChem BioAssay AID2459

Entries and their inhibition
EXPERIMENTAL_TARGET: Female germline-specific tumor suppressor gld-1 (Caenorhabditis elegans)
ASSAY_DETAILS: GLD-1/TGE RNA binding inhibitors, retest, confirmation, biochemical, fluorescence polarization, triplicate (AID 2459);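 also: 0% = GLD-1 with RNA probe and DMSO and 100% = wells lacking GLD-1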
EXPERIMENTAL_SETUP: GLD-1/FL-TGE RNA fluorescence polarization, at 5.96 µM, stronger effect = higher value
The list shows a part of the results.
Express your answer in %, writing the number without its unit.

The cases that follow already have their inhibition on record.
* COC(=O)CCCC1=CC2=CC(=O)C(C)(OC(=O)c3cccs3)C(=O)C2=CN1c1cccc(C#N)c1 (centres undefined) | 8.48
* COC(=O)c1sc(NC(=S)NC(=O)c2ccc(C)cc2)nc1C | -1.92
* O=c1[nH]c(=O)c2nc3ccccc3nc2[nH]1 | 101

--- query ---
Looking for the measured inhibition of Oc1ccc2ccccc2c1N=Nc1nccs1 , can you help?
8.17
